Data provenance is patent US6949552B2.

pIC50: −log10 of the molar value. Structures can show the parent of a compound that is named as a salt.
Consider molecules characterized by their pIC50 with human MC4 receptor (Homo sapiens, UniProt P32245).
Sequence (P32245 whole entry): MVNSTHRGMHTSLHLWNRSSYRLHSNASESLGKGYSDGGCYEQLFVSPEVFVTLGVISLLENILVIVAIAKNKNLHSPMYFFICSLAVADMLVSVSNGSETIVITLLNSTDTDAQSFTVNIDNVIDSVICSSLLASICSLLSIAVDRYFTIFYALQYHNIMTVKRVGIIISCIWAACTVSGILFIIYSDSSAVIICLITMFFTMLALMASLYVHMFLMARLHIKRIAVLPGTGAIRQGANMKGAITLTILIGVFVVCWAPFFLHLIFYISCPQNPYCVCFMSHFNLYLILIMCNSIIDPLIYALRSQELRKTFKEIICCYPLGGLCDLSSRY
Observable: pIC50

1) CN1CCN(C(CN2CCN(CCCCc3cccc4ccccc34)CC2)c2ccc(F)cc2)CC1 (single isomer, unassigned; (-)) [Compound 6, hydrochloride]; 7.05
2) CN1CCN(C(CN2CCN(CCCCc3cccc4ccccc34)CC2)c2ccc(F)cc2)CC1.Cl.Cl.Cl.Cl (centres unmarked); 6.79

###

Observable: melting point

1. CC(C)Oc1ccc2ccccc2c1CCCCN1CCN(CC(c2ccc(F)cc2)N2CCN(C(C)C)CC2)CC1.O=C(O)/C=C\C(=O)O.O=C(O)/C=C\C(=O)O.O=C(O)/C=C\C(=O)O (centres unmarked); 167 to 169 °C
2. COc1ccc(C(CN2CCN(CCCCc3cccc4ccccc34)CC2)N2CCN(C)CC2)cc1.O=C(O)/C=C\C(=O)O.O=C(O)/C=C\C(=O)O.O=C(O)/C=C\C(=O)O (centres unmarked); 138 to 140 °C
3. CN1CCN(C(CN2CCN(CCCCc3cccc4ccccc34)CC2)c2ccc(F)cc2)CC1.Cl.Cl.Cl.Cl (centres unmarked) [Compound 4]; 193 to 195 °C
4. COc1ccc2ccccc2c1CCCCN1CCN(CC(c2ccc(F)cc2)C2CCN(C(C)C)CC2)CC1.Cl.Cl.Cl (centres unmarked); 233 to 235 °C
5. CN1CCN(C(CN2CCN(CCCCc3cccc4ccccc34)CC2)c2ccc(F)cc2)CC1.Cl (centres unmarked); 193 to 195 °C

###

Entries and their melting point
Observable: melting point

1) CN1CCN(C(CN2CCN(CCCCc3noc4cc(F)ccc34)CC2)c2ccc(F)cc2)CC1.O=C(O)/C=C\C(=O)O.O=C(O)/C=C\C(=O)O.O=C(O)/C=C\C(=O)O (stereo not drawn); 170 to 173 °C
2) N=C(N)N1CCN(C(CN2CCN(CCCCc3cccc4ccccc34)CC2)c2ccc(F)cc2)CC1.O=C(O)/C=C\C(=O)O.O=C(O)/C=C\C(=O)O.O=C(O)/C=C\C(=O)O (stereo not drawn); 171 to 173 °C
3) CN1CCN(C(CN2CCN(CCCCc3cccc4ccccc34)CC2)c2ccc(N)cc2)CC1.O=C(O)/C=C\C(=O)O.O=C(O)/C=C\C(=O)O.O=C(O)/C=C\C(=O)O (stereo not drawn); 152 to 154 °C
4) COc1ccc2ccccc2c1CCCCN1CCN(CC(c2ccc(F)cc2)N2CCN(C(C)C)CC2)CC1.Cl.Cl.Cl.Cl (stereo not drawn); 183 to 185 °C
5) CN1CCC(O)(C(CN2CCN(CCCCc3cccc4ccccc34)CC2)c2ccc(F)cc2)CC1.Cl.Cl.Cl (stereo not drawn); 156 to 160 °C
6) CC(C)N1CCN(C(CN2CCN(CCCCc3cccc4ccccc34)CC2)c2ccc(F)cc2)CC1.O=C(O)/C=C\C(=O)O.O=C(O)/C=C\C(=O)O.O=C(O)/C=C\C(=O)O (stereo not drawn); 127 to 129 °C
